- System: UMC-11
- testProtocol: relative viability (nuclei count vs DMSO), 5 days (fraction); higher = more cells survive
- experimentalContext: first compound 0.1265 µM
experimentalEndpoint: relative viability

# compound, recordedValue
records = [
    ("O=C(O)c1ccc(-c2c[nH]c3ncc(-c4ccccc4)cc23)cc1C1CCCC1 + O=C(c1cc(Cc2n[nH]c(=O)c3ccccc23)ccc1F)N1CCN(C(=O)C2CC2)CC1 [Olaparib] (partner 8 µM)", 0.307),
    ("O=C(O)c1ccc(-c2c[nH]c3ncc(-c4ccccc4)cc23)cc1C1CCCC1 + C[C@@H](Oc1cc(-c2cnn(C3CCNCC3)c2)cnc1N)c1c(Cl)ccc(F)c1Cl [Crizotinib] (partner 1 µM)", 0.629),
    ("O=C(O)c1ccc(-c2c[nH]c3ncc(-c4ccccc4)cc23)cc1C1CCCC1 + CS(=O)(=O)CCNCc1ccc(-c2ccc3ncnc(Nc4ccc(OCc5cccc(F)c5)c(Cl)c4)c3c2)o1 [Lapatinib] (partner 2 µM)", 1.09),
    ("O=C(O)c1ccc(-c2c[nH]c3ncc(-c4ccccc4)cc23)cc1C1CCCC1 + CC(=O)c1c(C)c2cnc(Nc3ccc(N4CCNCC4)cn3)nc2n(C2CCCC2)c1=O [Palbociclib] (partner 0.5 µM)", 0.312),
    ("O=C(O)c1ccc(-c2c[nH]c3ncc(-c4ccccc4)cc23)cc1C1CCCC1 + CC1(C)CCC(c2ccc(Cl)cc2)=C(CN2CCN(c3ccc(C(=O)NS(=O)(=O)c4ccc(N[C@H](CCN5CCOCC5)CSc5ccccc5)c(S(=O)(=O)C(F)(F)F)c4)cc3)CC2)C1 [Navitoclax] (partner 0.5 µM)", 0.299),
]

* * *

- Tested on: EMC-BAC-2
- testProtocol: relative viability (nuclei count vs DMSO), 5 days (fraction); higher = more cells survive
- experimentalContext: first compound 2.53 µM
relative viability values, listed per item
experimentalEndpoint: relative viability

# molecule, target, experimentalEndpoint, recordedValue
rows = [
    ("Oc1nc(-c2ccc(C(F)(F)F)cc2)nc2c1CSCC2 [XAV939] + COc1cc2c(Oc3ccc(NC(=O)C4(C(=O)Nc5ccc(F)cc5)CC4)cc3F)ccnc2cc1OCCCN1CCOCC1 [Foretinib] (partner 0.25 µM)", "EMC-BAC-2", "relative viability", 0.553),
    ("Oc1nc(-c2ccc(C(F)(F)F)cc2)nc2c1CSCC2 [XAV939] + CS(=O)(=O)N1CCN(Cc2cc3nc(-c4cccc5[nH]ncc45)nc(N4CCOCC4)c3s2)CC1 [Pictilisib] (partner 1 µM)", "EMC-BAC-2", "relative viability", 0.314),
    ("Oc1nc(-c2ccc(C(F)(F)F)cc2)nc2c1CSCC2 [XAV939] + N=C(N)NC(=N)NCCc1ccccc1 [Phenformin] (partner 250 µM)", "EMC-BAC-2", "relative viability", 0.288),
    ("C=C1C(=O)O[C@@H](CCCCCCCC)[C@@H]1C(=O)O [C-75] + CC(C)C[C@H](NC(=O)[C@H](Cc1ccccc1)NC(=O)c1cnccn1)B(O)O [Bortezomib] (partner 0.002 µM)", "EMC-BAC-2", "relative viability", 0.914),
    ("C=C1C(=O)O[C@@H](CCCCCCCC)[C@@H]1C(=O)O [C-75] + C[C@@H](Oc1cc(-c2cnn(C3CCNCC3)c2)cnc1N)c1c(Cl)ccc(F)c1Cl [Crizotinib] (partner 1 µM)", "EMC-BAC-2", "relative viability", 0.692),
]
